B1: TEKT4 (parent)
chain: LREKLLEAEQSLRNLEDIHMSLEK

Variants of: B1
Test: protein stability index of a GFP-peptide fusion (GPS, HEK-293T) (PSI 1-6); higher = more stable;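 also: lentivirally expressed fusions sorted by FACS into six bins by GFP to DsRed ratio, PSI derived from sequencing read proportions per bin multiplied by bin number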
Settings: c terminus: a fixed tail appended
test_readout: protein stability index

| mutation_key | test_readout | reported_result |
| --- | --- | --- |
| S21N | protein stability index | 2.6 |
| L22A | protein stability index | 3.01 |
| S11Y | protein stability index | 1.83 |
| L5K | protein stability index | 4.93 |
| I18Q | protein stability index | 2.62 |
| L6K | protein stability index | 3.31 |
| D17F | protein stability index | 1.79 |
| N14E | protein stability index | 3.99 |
| L6Y | protein stability index | 2.61 |
| A8L | protein stability index | 1.63 |
| E7Q | protein stability index | 2.35 |
| K24R | protein stability index | 2.44 |
| E16L | protein stability index | 1.47 |
| K24T | protein stability index | 2.98 |
| E16H | protein stability index | 1.59 |
| L6R | protein stability index | 2.86 |
| E23S | protein stability index | 2.15 |
| I18K | protein stability index | 3.16 |
| E3V | protein stability index | 2.01 |
| L6I | protein stability index | 1.86 |
| D17Y | protein stability index | 1.45 |
| L15T | protein stability index | 2.47 |
